Source of measurements: ChEMBL document CHEMBL6120988

# Tested on: Mitochondrial membrane
# method: Induction of mitochondrial membrane potential loss in mouse 4T1 cells assessed as increase in green fluorescence by JC-1 staining based flow cytometric analysis (reference value: 7.4 %)
# Type: cell membranes
experimental-readout: Activity
Respond with the figure and its unit, in that order.

Guide cases for Activity, answers given:
molecule-smiles	system-under-test	Activity
C[C@H]1[C@H](OC(=O)CCC(=O)OCCCOC(=O)c2cc(O)c3c(c2)C(=O)c2cccc(O)c2C3=O)O[C@@H]2O[C@@]3(C)CC[C@H]4[C@H](C)CC[C@@H]1[C@@]24OO3	Mitochondrial membrane	37.3%
O=C(O)c1cc(O)c2c(c1)C(=O)c1cccc(O)c1C2=O	Mitochondrial membrane	11.4%

// switching to the query compound
Hello, please tell me recorded Activity for this one: C[C@H]1[C@H](OC(=O)CCC(=O)OCCOC(=O)c2cc(O)c3c(c2)C(=O)c2cccc(O)c2C3=O)O[C@@H]2O[C@@]3(C)CC[C@H]4[C@H](C)CC[C@@H]1[C@@]24OO3
39.2%

* * *

# method: Tmax in mouse at 100 mg/kg, po
# Type: ADME, organism-based
# run-parameters: in vivo
experimental-readout: Tmax

Give Tmax for C[C@H]1[C@H](OC(=O)CCC(=O)OCCCCOC(=O)c2cc(O)c3c(c2)C(=O)c2cccc(O)c2C3=O)O[C@@H]2O[C@@]3(C)CC[C@H]4[C@H](C)CC[C@@H]1[C@@]24OO3
3 h

* * *

# method: Drug localization in mitochondria of mouse 4T1 cells assessed as fluorescence intensity measured using pearson co-efficient incubated for 10 hrs by mito-tracker red fluorescent dye based confocal laser scanning microscopic analysis
# Type: ADME
# run-parameters: 4t1, 10 h
experimental-readout: Flu intensity
Write the number on its own, no unit after it.

Examples with their reported Flu intensity follow.
molecule-smiles	measured-value
C[C@H]1[C@H](OC(=O)CCC(=O)OCCOC(=O)c2cc(O)c3c(c2)C(=O)c2cccc(O)c2C3=O)O[C@@H]2O[C@@]3(C)CC[C@H]4[C@H](C)CC[C@@H]1[C@@]24OO3	0.91
C[C@H]1[C@H](OC(=O)CCC(=O)OCCCCOC(=O)c2cc(O)c3c(c2)C(=O)c2cccc(O)c2C3=O)O[C@@H]2O[C@@]3(C)CC[C@H]4[C@H](C)CC[C@@H]1[C@@]24OO3	0.96
C[C@H]1[C@H](OC(=O)CCC(=O)OCCCCCOC(=O)c2cc(O)c3c(c2)C(=O)c2cccc(O)c2C3=O)O[C@@H]2O[C@@]3(C)CC[C@H]4[C@H](C)CC[C@@H]1[C@@]24OO3	0.94
O=C(O)c1cc(O)c2c(c1)C(=O)c1cccc(O)c1C2=O	0.93
C[C@H]1[C@H](OC(=O)CCC(=O)OCCCOC(=O)c2cc(O)c3c(c2)C(=O)c2cccc(O)c2C3=O)O[C@@H]2O[C@@]3(C)CC[C@H]4[C@H](C)CC[C@@H]1[C@@]24OO3	0.96

Note: attention shifts to another entry.
Respond only with Flu intensity recorded for C[C@H]1[C@H](OC(=O)CCC(=O)OCCCCCCOC(=O)c2cc(O)c3c(c2)C(=O)c2cccc(O)c2C3=O)O[C@@H]2O[C@@]3(C)CC[C@H]4[C@H](C)CC[C@@H]1[C@@]24OO3
0.95

* * *

# Tested on: MCF7
# method: Cytotoxicity against human MCF7 cells assessed as cell viability by MTT assay
# Assay type: functional, cell-based
Listing of recorded pIC50 by entry.
Units for pIC50: none; it is -log10 of a concentration expressed in mol/L.

compound	pIC50
O=C(O)c1cc(O)c2c(c1)C(=O)c1cccc(O)c1C2=O [RHEIN]	4.25

Specify pIC50 for C[C@H]1[C@H](OC(=O)CCC(=O)OCCCCOC(=O)c2cc(O)c3c(c2)C(=O)c2cccc(O)c2C3=O)O[C@@H]2O[C@@]3(C)CC[C@H]4[C@H](C)CC[C@@H]1[C@@]24OO3 and stop.
5.72

Output measured pIC50 for this item: C[C@H]1[C@H](OC(=O)CCC(=O)O)O[C@@H]2O[C@@]3(C)CC[C@H]4[C@H](C)CC[C@@H]1[C@@]24OO3 [ARTESUNATE]
4.89

* * *

# System: Mitochondrial membrane
# method: Induction of mitochondrial membrane potential loss in mouse 4T1 cells assessed as increase in green fluorescence by JC-1 staining based flow cytometric analysis (reference value: 7.4 %)
# Type: cell membranes
experimental-readout: Activity (%)
Give just the numeric value; % need not be written.

These recorded examples may help you get a feel for the data.
compound	system-under-test	experimental-readout	measured-value
C[C@H]1[C@H](OC(=O)CCC(=O)O)O[C@@H]2O[C@@]3(C)CC[C@H]4[C@H](C)CC[C@@H]1[C@@]24OO3 [ARTESUNATE]	Mitochondrial membrane	Activity	14.8
C[C@H]1[C@H](OC(=O)CCC(=O)OCCCCOC(=O)c2cc(O)c3c(c2)C(=O)c2cccc(O)c2C3=O)O[C@@H]2O[C@@]3(C)CC[C@H]4[C@H](C)CC[C@@H]1[C@@]24OO3	Mitochondrial membrane	Activity	45.6
C[C@H]1[C@H](OC(=O)CCC(=O)OCCCCCCOC(=O)c2cc(O)c3c(c2)C(=O)c2cccc(O)c2C3=O)O[C@@H]2O[C@@]3(C)CC[C@H]4[C@H](C)CC[C@@H]1[C@@]24OO3	Mitochondrial membrane	Activity	38.1

Lab note: next compound to report on.
Supply measured Activity of C[C@H]1[C@H](OC(=O)CCC(=O)OCCCCCOC(=O)c2cc(O)c3c(c2)C(=O)c2cccc(O)c2C3=O)O[C@@H]2O[C@@]3(C)CC[C@H]4[C@H](C)CC[C@@H]1[C@@]24OO3 in your reply.
36.5

* * *

# method: Half life in mouse iv dosed mouse
# Format: ADME, organism-based
# run-parameters: in vivo
experimental-readout: half-life (h)
Return type: number; implicit unit h.

# return recorded half-life for input C[C@H]1[C@H](OC(=O)CCC(=O)OCCCCOC(=O)c2cc(O)c3c(c2)C(=O)c2cccc(O)c2C3=O)O[C@@H]2O[C@@]3(C)CC[C@H]4[C@H](C)CC[C@@H]1[C@@]24OO3
7.01

* * *

# method: MRT (0 to infinity) in iv dosed mouse
# Type: ADME, organism-based
# run-parameters: in vivo
experimental-readout: MRT inf (h)
Numeric answer only, unit h assumed.

State its MRT inf for this compound: C[C@H]1[C@H](OC(=O)CCC(=O)OCCCCOC(=O)c2cc(O)c3c(c2)C(=O)c2cccc(O)c2C3=O)O[C@@H]2O[C@@]3(C)CC[C@H]4[C@H](C)CC[C@@H]1[C@@]24OO3
7.67

* * *

# method: AUC(0 to t) in mouse iv dosed mouse
# Assay type: ADME, organism-based
# run-parameters: in vivo, dose 10 mg/kg, time 3 day
experimental-readout: AUC(0-t) at 72 h (ng·h/mL)
Hi! Could you send only the number? It should be in ng·h/mL, unit omitted.

Return reported AUC(0-t) at 72 h. Input compound: C[C@H]1[C@H](OC(=O)CCC(=O)OCCCCOC(=O)c2cc(O)c3c(c2)C(=O)c2cccc(O)c2C3=O)O[C@@H]2O[C@@]3(C)CC[C@H]4[C@H](C)CC[C@@H]1[C@@]24OO3
11500

* * *

# method: MRT (0 to infinity) in mouse at 100 mg/kg, po
# Type: ADME, organism-based
# run-parameters: in vivo
experimental-readout: MRT inf
Put down the number, then write its unit next to it.

Answer with the recorded MRT inf for the compound listed here: C[C@H]1[C@H](OC(=O)CCC(=O)OCCCCOC(=O)c2cc(O)c3c(c2)C(=O)c2cccc(O)c2C3=O)O[C@@H]2O[C@@]3(C)CC[C@H]4[C@H](C)CC[C@@H]1[C@@]24OO3
4.95 h

* * *

# method: Half life in mouse at 100 mg/kg, po
# Format: ADME, organism-based
# run-parameters: in vivo
experimental-readout: half-life (h)
Answer in h, number only, no unit symbol.

Tell me its half-life given C[C@H]1[C@H](OC(=O)CCC(=O)OCCCCOC(=O)c2cc(O)c3c(c2)C(=O)c2cccc(O)c2C3=O)O[C@@H]2O[C@@]3(C)CC[C@H]4[C@H](C)CC[C@@H]1[C@@]24OO3 as the entry.
5.15

* * *

# Test system: MCF7
# method: Cytotoxicity against human MCF7 cells assessed as cell viability by MTT assay
# Type: functional, cell-based
Recorded measurements of pIC50, one per entry
Schema: pIC50 number; meaning minus log10 of the concentration expressed in molar units.

molecule-smiles	pIC50
C[C@H]1[C@H](OC(=O)CCC(=O)OCCOC(=O)c2cc(O)c3c(c2)C(=O)c2cccc(O)c2C3=O)O[C@@H]2O[C@@]3(C)CC[C@H]4[C@H](C)CC[C@@H]1[C@@]24OO3	5.65
C[C@H]1[C@H](OC(=O)CCC(=O)OCCCCCCOC(=O)c2cc(O)c3c(c2)C(=O)c2cccc(O)c2C3=O)O[C@@H]2O[C@@]3(C)CC[C@H]4[C@H](C)CC[C@@H]1[C@@]24OO3	5.66
C[C@H]1[C@H](OC(=O)CCC(=O)OCCCOC(=O)c2cc(O)c3c(c2)C(=O)c2cccc(O)c2C3=O)O[C@@H]2O[C@@]3(C)CC[C@H]4[C@H](C)CC[C@@H]1[C@@]24OO3	5.61

--- query ---
Retrieve pIC50 on MCF7; query C[C@H]1[C@H](OC(=O)CCC(=O)OCCCCCOC(=O)c2cc(O)c3c(c2)C(=O)c2cccc(O)c2C3=O)O[C@@H]2O[C@@]3(C)CC[C@H]4[C@H](C)CC[C@@H]1[C@@]24OO3
5.64
